Data provenance: patent US20230050440A1

test-target: T1, cyno TIGIT-Fc (cynomolgus monkey)
T1 construct: not shown: Fc part
T1 sequence (chain, as listed by the source limits assumed): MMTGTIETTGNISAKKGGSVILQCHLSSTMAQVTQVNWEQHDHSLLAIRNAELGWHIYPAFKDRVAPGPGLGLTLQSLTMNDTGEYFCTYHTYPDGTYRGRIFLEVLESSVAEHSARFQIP
method-summary: BLI (ForteBio), IgG on sensor, avid
assay-readout: Kd (nM)
Just the number please, in nM, no unit attached.

binder	Kd [nM]
Clone 25E (antibody, V domains shown) VH: QVQLVQSGAEVKKPGASVKVSCKASGYTFTSYAIAWVRQAPGQGLEWMGWISAYNGNTNYAQKLQGRVTMTTDTSTSTAYMELRSLRSDDTAVYYCARSGSSFWSGDVLGAFDIWGQGTMVTVSS VL: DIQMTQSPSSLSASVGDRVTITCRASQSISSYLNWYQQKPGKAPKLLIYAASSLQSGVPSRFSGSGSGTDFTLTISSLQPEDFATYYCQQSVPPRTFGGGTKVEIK	1.18

Problem: What value of Kd has been recorded for this entry: Clone 25B (antibody, V domains shown) VH: QVQLVQSGAEVKKPGASVKVSCKASGYTFTSYPIGWVRQAPGQGLEWMGWISSYNGNTNYAQKLQGRVTMTTDTSTSTAYMELRSLRSDDTAVYYCARDLSSFWSGDVLGAFDIWGQGTMVTVSS VL: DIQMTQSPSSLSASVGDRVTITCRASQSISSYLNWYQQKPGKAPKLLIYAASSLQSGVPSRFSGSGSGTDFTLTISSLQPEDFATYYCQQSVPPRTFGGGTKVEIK
Solution: 1.4

Problem: Clone 2C (antibody, V domains shown) VH: EVQLVESGGGLVQPGGSLRLSCAASGFTFTDYYMDWVRQAPGKGLEWVGRTRNKVNSYYTEYAASVKGRFTISRDDSKNSLYLQMNSLKTEDTAVYYCARGQYYYGSDRRGYYYMDVWGQGTTVTVSS VL: EIVLTQSPGTLSLSPGERATLSCRASQSVSSSYLAWYQQKPGQAPRLLIYGASSRATGIPDRFSGSGSGTDFTLTISRLEPEDFAVYYCQQAVPSPLTFGGGTKVEIK ?
Solution: 0.984

Problem: Clone 16 (antibody, V domains shown, Fully human IgG produced in yeast) VH: QVQLVQSGAEVKKPGSSVKVSCKASGGTFSSYAISWVRQAPGQGLEWMGGIIPIFGTASYAQKFQGRVTITADESTSTAYMELSSLRSEDTAVYYCARQSTWHKLYGTDVWGQGTTVTVSS VL: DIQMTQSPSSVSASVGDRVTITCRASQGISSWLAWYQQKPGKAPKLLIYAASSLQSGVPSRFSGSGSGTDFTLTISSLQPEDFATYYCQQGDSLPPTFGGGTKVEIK ?
Solution: 4.67
